# ΔTm listing for each entry below
Biological target: Mitogen-activated protein kinase 3 (Homo sapiens)
Sequence (P27361 whole entry): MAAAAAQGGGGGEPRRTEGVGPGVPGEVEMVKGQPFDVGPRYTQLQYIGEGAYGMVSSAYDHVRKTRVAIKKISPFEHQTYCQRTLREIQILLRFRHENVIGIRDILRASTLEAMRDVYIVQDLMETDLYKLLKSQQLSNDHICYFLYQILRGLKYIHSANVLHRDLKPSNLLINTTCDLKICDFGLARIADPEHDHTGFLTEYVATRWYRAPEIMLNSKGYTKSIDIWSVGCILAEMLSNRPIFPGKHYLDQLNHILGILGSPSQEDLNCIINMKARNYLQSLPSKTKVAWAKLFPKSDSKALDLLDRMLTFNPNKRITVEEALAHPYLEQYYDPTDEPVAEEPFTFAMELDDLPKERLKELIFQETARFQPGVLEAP
Provide the measurement as a number trailed by its unit.

Recorded results for 5 compounds are shown here.
INSERT INTO assay_data (compound, system_under_test, attribute_measured, recorded_result) VALUES
  ('O=C1Nc2ccccc2/C1=C\c1ccc[nH]1', 'Mitogen-activated protein kinase 3 (Homo sapiens)', 'ΔTm', '0.3 °C'),
  ('O=C1Cc2c([nH]c3ccc(Br)cc23)-c2ccccc2N1', 'Mitogen-activated protein kinase 3 (Homo sapiens)', 'ΔTm', '0.5 °C'),
  ('O=C1NC(=O)c2c1c1c3ccccc3[nH]c1n1cncc21 [ISOGRANULATIMIDE]', 'Mitogen-activated protein kinase 3 (Homo sapiens)', 'ΔTm', '2 °C'),
  ('Oc1ccc(-c2nc(-c3ccc(F)cc3)c(-c3ccncc3)[nH]2)cc1', 'Mitogen-activated protein kinase 3 (Homo sapiens)', 'ΔTm', '0.4 °C'),
  ('CC(C)c1cc(/C=C(\C#N)C(=O)NCCCc2ccccc2)cc(C(C)C)c1O', 'Mitogen-activated protein kinase 3 (Homo sapiens)', 'ΔTm', '-0.1 °C');

Here c1ccc(-c2n[nH]c3c2oc2ccccc23)cc1 was tested on Mitogen-activated protein kinase 3 (Homo sapiens), and its ΔTm came to 0.3 °C

Here Cn1cc(C2=C(c3cn(CCCSC(=N)N)c4ccccc34)C(=O)NC2=O)c2ccccc21 was tested on Mitogen-activated protein kinase 3 (Homo sapiens), and its ΔTm came to 0.7 °C

Here C[C@@H]1C[C@H]2O[C@@H]2/C=C\C=C\C(=O)Cc2c(Cl)c(O)cc(O)c2C(=O)O1 was tested on Mitogen-activated protein kinase 3 (Homo sapiens), and its ΔTm came to 0 °C

Here O=c1cc(N2CCOCC2)oc2c(-c3ccccc3)cccc12 was tested on Mitogen-activated protein kinase 3 (Homo sapiens), and its ΔTm came to -0.6 °C

Here Oc1cccc(-c2nc(N3CCOCC3)c3oc4ncccc4c3n2)c1 was tested on Mitogen-activated protein kinase 3 (Homo sapiens), and its ΔTm came to 0 °C

Here CN(C)C[C@@H]1CCn2cc(c3ccccc32)C2=C(C(=O)NC2=O)c2cn(c3ccccc23)CCO1 was tested on Mitogen-activated protein kinase 3 (Homo sapiens), and its ΔTm came to 0.5 °C

Here N#C/C(=C\c1ccc(O)c(O)c1)C(=O)NCc1ccccc1 was tested on Mitogen-activated protein kinase 3 (Homo sapiens), and its ΔTm came to 0.8 °C

---

// each record: one item and its ΔTm for STE20-like serine/threonine-protein kinase (Homo sapiens) (UniProt Q9H2G2)
Write the value in °C as a bare number.

Recorded results for 5 compounds are shown here.
INSERT INTO results (compound, recorded_result) VALUES
  ('COc1ccc(COc2ccc(Cc3cnc(N)nc3N)cc2OC)cc1', 0.1),
  ('Oc1cc(O)cc(/C=C/c2ccc(O)c(O)c2)c1 [PICEATANNOL]', 1.6),
  ('O=C1Nc2ccccc2/C1=C1/Nc2ccccc2/C1=N\O', 4.7),
  ('COc1cc2ncnc(Nc3cccc(O)c3)c2cc1OC', 3.2),
  ('Nc1n[nH]c2nc3ccccc3nc12 [QUINOXALINE1]', 2);

Form: compound = O=C1NC(=O)c2c1c1c3ccccc3[nH]c1n1cncc21 [ISOGRANULATIMIDE] ; ΔTm = 2.1

Form: compound = O=C(O)Cc1ccc(O)c([N+](=O)[O-])c1 ; ΔTm = 0

Form: compound = O=Nc1c(-c2c(O)[nH]c3ccccc23)[nH]c2ccccc12 ; ΔTm = 3.9

---

Assay: Binding affinity at PKC
attribute measured: IC50 (µM)
Write the value in µM as a bare number.

Form: compound = Oc1cc(O)cc(/C=C/c2ccc(O)c(O)c2)c1 ; IC50 = 8

---

Molecular target: Mitogen-activated protein kinase 6 (Homo sapiens) (UniProt Q16659)
Sequence (Q16659 whole entry): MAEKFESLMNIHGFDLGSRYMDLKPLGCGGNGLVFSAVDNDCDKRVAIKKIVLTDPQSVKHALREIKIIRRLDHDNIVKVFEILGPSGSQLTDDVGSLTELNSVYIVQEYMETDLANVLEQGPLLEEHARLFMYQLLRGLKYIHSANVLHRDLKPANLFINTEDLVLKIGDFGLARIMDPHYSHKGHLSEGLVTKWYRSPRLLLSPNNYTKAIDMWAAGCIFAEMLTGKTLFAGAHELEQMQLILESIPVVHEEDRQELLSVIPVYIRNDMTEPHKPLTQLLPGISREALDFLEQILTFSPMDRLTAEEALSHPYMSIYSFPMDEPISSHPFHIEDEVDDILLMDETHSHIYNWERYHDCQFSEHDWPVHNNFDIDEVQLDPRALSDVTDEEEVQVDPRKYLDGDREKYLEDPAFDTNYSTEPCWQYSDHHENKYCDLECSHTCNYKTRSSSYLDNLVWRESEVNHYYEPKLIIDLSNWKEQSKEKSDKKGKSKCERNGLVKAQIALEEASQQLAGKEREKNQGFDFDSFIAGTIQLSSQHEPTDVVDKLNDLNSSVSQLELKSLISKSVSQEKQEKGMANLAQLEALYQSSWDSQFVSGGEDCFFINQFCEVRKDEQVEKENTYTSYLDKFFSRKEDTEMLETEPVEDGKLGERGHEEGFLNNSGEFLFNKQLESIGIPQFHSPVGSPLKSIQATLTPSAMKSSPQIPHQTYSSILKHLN
# cutoff 0.5 °C applies to ΔTm; >= gives y, < gives n

Solved cases (5 shown):
INSERT INTO measurements (molecule, system_under_test, group) VALUES
  ('O=C1NC(=O)C(c2cn(CCCn3ccnc3)c3ccccc23)=C1Nc1ccccc1', 'Mitogen-activated protein kinase 6 (Homo sapiens) (UniProt Q16659)', 'y'),
  ('COc1ccc(CNC(=O)Nc2ncc([N+](=O)[O-])s2)cc1', 'Mitogen-activated protein kinase 6 (Homo sapiens) (UniProt Q16659)', 'y'),
  ('CN(C)CC1CCn2c(c(C3=C(c4c[nH]c5ccccc45)C(=O)NC3=O)c3ccccc32)C1 (stereo not given)', 'Mitogen-activated protein kinase 6 (Homo sapiens) (UniProt Q16659)', 'y'),
  ('CC[C@H](CO)Nc1nc(NCc2ccccc2)c2ncn(C(C)C)c2n1', 'Mitogen-activated protein kinase 6 (Homo sapiens) (UniProt Q16659)', 'n'),
  ('Cc1nc2sccn2c(=O)c1CCN1CCC(=C(c2ccccc2)c2ccc(F)cc2)CC1', 'Mitogen-activated protein kinase 6 (Homo sapiens) (UniProt Q16659)', 'n');

Query :: Would you say CCN1/C(=C/C(C)=O)Sc2ccc(OC)cc21 shows ΔTm at minimum 0.5 °C?
Result :: n

Query :: Would you say COc1cc(C[C@H]2C(=O)OC[C@@H]2Cc2ccc(OC)c(OC)c2)ccc1O shows ΔTm at minimum 0.5 °C?
Result :: n

Query :: Would you say Oc1ccc(-c2nc(-c3ccc(F)cc3)c(-c3ccncc3)[nH]2)cc1 shows ΔTm at minimum 0.5 °C?
Result :: n

Query :: Would you say N=C(N)NCCNS(=O)(=O)c1cccc2cnccc12 shows ΔTm at minimum 0.5 °C?
Result :: n

---

Target: Mitogen-activated protein kinase 11 (Homo sapiens, UniProt Q15759)
Sequence (Q15759 whole entry): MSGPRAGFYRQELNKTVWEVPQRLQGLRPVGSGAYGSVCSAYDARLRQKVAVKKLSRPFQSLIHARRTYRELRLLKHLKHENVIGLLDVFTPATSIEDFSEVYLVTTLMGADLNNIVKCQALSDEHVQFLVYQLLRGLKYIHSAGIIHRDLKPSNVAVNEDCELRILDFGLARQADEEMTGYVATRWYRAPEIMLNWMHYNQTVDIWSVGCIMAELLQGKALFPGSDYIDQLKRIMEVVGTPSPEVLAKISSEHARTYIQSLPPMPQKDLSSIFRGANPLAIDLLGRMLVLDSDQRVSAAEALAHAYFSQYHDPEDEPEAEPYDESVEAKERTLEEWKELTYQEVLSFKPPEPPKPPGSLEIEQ
attribute measured: ΔTm (°C)
Write the value in °C as a bare number.

Here CC(C)n1cnc2c(NCc3ccccc3O)nc(NCCCO)nc21 was tested on Mitogen-activated protein kinase 11 (Homo sapiens, UniProt Q15759), and its ΔTm came to 0.1

Here NC1=N/C(=C2/CCNC(=O)c3[nH]ccc32)C(=O)N1 was tested on Mitogen-activated protein kinase 11 (Homo sapiens, UniProt Q15759), and its ΔTm came to -0.4

---

Biological target: Calcium/calmodulin-dependent protein kinase type II subunit delta (Homo sapiens)
# cutoff 0.1 °C applies to ΔTm; >= gives 1.0, < gives 0.0

Solved cases (10 shown):
INSERT INTO results (molecule, group) VALUES
  ('CC(C)c1nn(-c2c(Cl)cccc2Cl)c2nc(Cc3ccc(OCCO)cc3)[nH]c(=O)c12', 1.0),
  ('CN(C)CCCn1cc(C2=C(c3c[nH]c4ccccc34)C(=O)NC2=O)c2ccccc21', 1.0),
  ('N#CCCc1ccc2c(c1)-c1[nH]c3ccc([N+](=O)[O-])cc3c1CC(=O)N2', 0.0),
  ('COc1cccc(-c2cc(=O)c3ccccc3o2)c1N', 1.0),
  ('O=C1NC(=O)C(c2c[nH]c3ccccc23)=C1c1c[nH]c2ccccc12', 1.0),
  ('Nc1n[nH]c2nc3ccccc3nc12', 0.0),
  ('CC(C)[C@H](CO)Nc1nc(Nc2cc(N)cc(Cl)c2)c2ncn(C(C)C)c2n1', 1.0),
  ('C#Cc1cccc(Nc2ncnc3cc(OCCOC)c(OCCOC)cc23)c1', 0.0),
  ('COC(=O)[C@]1(O)C[C@@H]2O[C@@]1(C)n1c3ccccc3c3c4c(c5c6ccccc6n2c5c31)C(=O)NC4 (single isomer, unassigned)', 1.0),
  ('O=C(O)/C=C/c1cc(CO)ccc1CO', 0.0);

Query :: Would you say COc1ccc2c(c1)/C(=C/c1cnc[nH]1)C(=O)N2 shows ΔTm at minimum 0.1 °C?
Result :: 0.0

Query :: Would you say O=C1Nc2cc(Br)ccc2/C1=C1/Nc2ccccc2/C1=N\O shows ΔTm at minimum 0.1 °C?
Result :: 0.0

---

// each record: one item and its ΔTm for UniProt P23458
Sequence (P23458 whole entry): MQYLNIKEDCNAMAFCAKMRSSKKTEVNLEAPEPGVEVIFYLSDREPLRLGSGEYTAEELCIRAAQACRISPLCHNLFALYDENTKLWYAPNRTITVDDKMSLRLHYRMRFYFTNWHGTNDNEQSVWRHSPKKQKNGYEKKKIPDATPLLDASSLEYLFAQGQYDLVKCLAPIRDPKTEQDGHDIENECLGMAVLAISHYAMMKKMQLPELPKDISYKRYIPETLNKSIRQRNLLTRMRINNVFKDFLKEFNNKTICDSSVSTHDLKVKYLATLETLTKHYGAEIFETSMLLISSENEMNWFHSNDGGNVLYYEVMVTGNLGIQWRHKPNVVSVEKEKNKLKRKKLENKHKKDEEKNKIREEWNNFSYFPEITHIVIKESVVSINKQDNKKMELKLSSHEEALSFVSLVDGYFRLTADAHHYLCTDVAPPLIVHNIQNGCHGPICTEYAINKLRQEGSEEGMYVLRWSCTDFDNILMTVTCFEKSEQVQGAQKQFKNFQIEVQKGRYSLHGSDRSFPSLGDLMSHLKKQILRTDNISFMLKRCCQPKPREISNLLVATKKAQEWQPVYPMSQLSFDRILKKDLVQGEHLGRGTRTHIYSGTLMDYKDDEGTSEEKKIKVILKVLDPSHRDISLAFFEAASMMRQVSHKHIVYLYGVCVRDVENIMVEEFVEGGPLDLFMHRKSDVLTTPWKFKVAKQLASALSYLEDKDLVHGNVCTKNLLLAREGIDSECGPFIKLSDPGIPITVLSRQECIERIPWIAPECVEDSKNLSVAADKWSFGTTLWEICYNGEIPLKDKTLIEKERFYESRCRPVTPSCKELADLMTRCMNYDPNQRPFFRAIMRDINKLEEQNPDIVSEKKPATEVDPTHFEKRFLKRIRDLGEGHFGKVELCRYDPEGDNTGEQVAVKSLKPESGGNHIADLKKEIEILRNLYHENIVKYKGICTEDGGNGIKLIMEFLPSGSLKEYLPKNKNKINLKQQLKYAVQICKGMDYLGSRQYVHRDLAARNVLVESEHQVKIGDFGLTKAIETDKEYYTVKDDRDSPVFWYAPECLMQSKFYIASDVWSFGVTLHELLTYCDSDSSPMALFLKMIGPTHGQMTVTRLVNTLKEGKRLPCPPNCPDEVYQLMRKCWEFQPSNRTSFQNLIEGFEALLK
Write the value in °C as a bare number.

INSERT INTO results (compound, attribute_measured, unit_descriptor, recorded_result) VALUES
  ('Cc1ccc(NC2=CC(=O)c3sc(C)nc3C2=O)cc1', 'ΔTm', '°C', -0.9);

Here O=C1NC(=O)C(c2c[nH]c3ccccc23)=C1c1c[nH]c2ccccc12 was tested on UniProt P23458, and its ΔTm came to -0.5

Here N=C(N)NCCNS(=O)(=O)c1cccc2cnccc12 was tested on UniProt P23458, and its ΔTm came to -0.3

---

// each record: one item and its ΔTm for Serine/threonine-protein kinase PAK 6 (Homo sapiens)
Write the value in °C as a bare number.

Recorded results for 5 compounds are shown here.
INSERT INTO results (compound_string, attribute_measured, recorded_result) VALUES
  ('NC1=NC(=O)/C(=C2\CCNC(=O)c3[nH]c(Br)cc32)N1', 'ΔTm', 1.2),
  ('N#C/C(=C\c1ccc(O)c(O)c1)C(=O)NCc1ccccc1', 'ΔTm', -0.4),
  ('CCN(CC)CCNC(=O)c1c(C)[nH]c(/C=C2\C(=O)Nc3ccc(Cl)cc32)c1C', 'ΔTm', 4.4),
  ('O=C(O)/C=C/c1cc(CO)ccc1CO', 'ΔTm', -0.4),
  ('C[C@@H](N)[C@H]1CC[C@H](C(=O)Nc2ccncc2)CC1', 'ΔTm', -0.2);

Here Nc1ncnc2c1c(I)cn2[C@@H]1O[C@H](CO)[C@@H](O)[C@H]1O was tested on Serine/threonine-protein kinase PAK 6 (Homo sapiens), and its ΔTm came to 1.1
